Listed here are compounds together with their documented MIC.
System: Candida Pseudotrop. ATCC 2512
Test: MIC yeasts, Candida pseudotropicalis (Table 2)
Format: cell-based
Settings: without serum; Sabourand broth
Numbers only here, please. The scale is µg/mL.

INSERT INTO assay_data (compound, unit_tag, observed_measurement) VALUES
  ('CCCCCCCCCC[N+](CC)(CC)CCNC(=O)C12CC3CC(CC(C3)C1)C2 [Example 10]', 'µg/mL', 2);

Challenge: Indicate the recorded MIC value for this compound: CCCCCCCCCC[N+](C)(C)CCOC(=O)C12CC3CC(CC(C3)C1)C2 (single isomer, unassigned) [Example 2]
Response given: 0.5

Challenge: Indicate the recorded MIC value for this compound: CCCCCCCCCC[N+](CC)(CC)CCNC(=O)C12CC3CC(CC(C3)C1)C2 [Example 9]
Response given: 0.2
